Every entry's value here was drawn from patent US8829195B2.

# IC50 annotations
# measured-target: ABL1 (64-515) (Homo sapiens, UniProt P00519)
# Construct: 3.5 nM ABL (ABL(64-515), produced in-house from E. coli); His6 followed by a PreScission protease cleavage site (N, cleaved yes); made in house; host or cells: E. coli (BL21 (DE3) according to b733)
# experimental-details: Caliper ABL1 (64-515) microfluidic mobility shift assay
# Format: biochemical
# condition: comparison of ortho substitution on R3/R4 ring
measurement-kind: IC50

INSERT INTO measurements (smiles_record, measured_target, val) VALUES
  ('Cc1cc(OC(F)(F)F)ccc1NC(=O)c1cnc(N2CC[C@@H](O)C2)c(-c2ccn[nH]2)c1', 'ABL1 (64-515) (Homo sapiens, UniProt P00519)', '1.8 µM'),
  ('O=C(Nc1ccc(OC(F)(F)F)cc1Cl)c1cnc(N2CC[C@@H](O)C2)c(-c2ccn[nH]2)c1', 'ABL1 (64-515) (Homo sapiens, UniProt P00519)', '1.6 µM');

----------
# measured-target: Ba/F3-BCR-ABL1-T315I cells (Homo sapiens, UniProt P00519, T315I, cells depend on it)
# Construct: A similar approach was used to generate Ba/F3 cells that depend on a BCR-ABL1 variant in which threonine 315 is replaced with isoleucine; fused on or other part: P11274 (Breakpoint cluster region protein)
# experimental-details: Ba/F3-BCR-ABL1-T315I cell proliferation assay
# Type: cell-based, murine
# condition: 48 hours; read-out: Ba/F3-BCR-ABL1-T315I IC50
# log10 of GI50 values compiled below
measurement-kind: log10 of GI50 (log10 of the value in nM)

INSERT INTO measurements (compound, measured_target, val) VALUES
  ('O=C(Nc1ccc(SC(F)(F)F)c(F)c1)c1cnc(N2CC[C@@H](O)C2)c(-c2ccn[nH]2)c1 [Example 15]', 'Ba/F3-BCR-ABL1-T315I cells (Homo sapiens, UniProt P00519, T315I, cells depend on it)', 1.49),
  ('O=C(Nc1ccc(OC(F)(F)F)c(F)c1)c1cnc(N2CC[C@H](CO)C2)c(-c2ccn[nH]2)c1 [Example 14]', 'Ba/F3-BCR-ABL1-T315I cells (Homo sapiens, UniProt P00519, T315I, cells depend on it)', 2.34),
  ('O=C(Nc1ccc(OC(F)(F)F)cc1)c1cnc(N2CC[C@@H](O)C2)c(-c2[nH]ncc2F)c1 [Example 5]', 'Ba/F3-BCR-ABL1-T315I cells (Homo sapiens, UniProt P00519, T315I, cells depend on it)', 2.13),
  ('O=C(Nc1ccc(OC(F)(F)F)c(F)c1)c1cnc(N2CC[C@@H](O)C2)c(-c2ccn[nH]2)c1 [Example 13]', 'Ba/F3-BCR-ABL1-T315I cells (Homo sapiens, UniProt P00519, T315I, cells depend on it)', 2.18),
  ('Cc1cc(-c2cc(C(=O)Nc3ccc(OC(F)(F)Cl)cc3)cnc2N2CC[C@@H](O)C2)[nH]n1 [Example 23]', 'Ba/F3-BCR-ABL1-T315I cells (Homo sapiens, UniProt P00519, T315I, cells depend on it)', 1.62),
  ('O=C(Nc1ccc(OC(F)(F)F)cc1)c1cnc(N2CC[C@H](CO)C2)c(-c2ccn[nH]2)c1 [Example 7]', 'Ba/F3-BCR-ABL1-T315I cells (Homo sapiens, UniProt P00519, T315I, cells depend on it)', 2.12),
  ('O=C(Nc1ccc(OC(F)(F)C(F)(F)F)cc1)c1cnc(N2CC[C@@H](O)C2)c(-c2ccn[nH]2)c1 [Example 19]', 'Ba/F3-BCR-ABL1-T315I cells (Homo sapiens, UniProt P00519, T315I, cells depend on it)', 2.37),
  ('O=C(Nc1ccc(S(F)(F)(F)(F)F)cc1)c1cnc(N2CC[C@@H](O)C2)c(-c2ccn[nH]2)c1 [Example 17]', 'Ba/F3-BCR-ABL1-T315I cells (Homo sapiens, UniProt P00519, T315I, cells depend on it)', 2.30),
  ('O=C(Nc1ccc(OC(F)(F)Cl)cc1)c1ccc(N2CC[C@@H](O)C2)c(-c2[nH]ncc2F)c1 [Example 24]', 'Ba/F3-BCR-ABL1-T315I cells (Homo sapiens, UniProt P00519, T315I, cells depend on it)', 1.34),
  ('Cc1cn[nH]c1-c1cc(C(=O)Nc2ccc(OC(F)(F)F)cc2)cnc1N1CC[C@@H](O)C1 [Example 4]', 'Ba/F3-BCR-ABL1-T315I cells (Homo sapiens, UniProt P00519, T315I, cells depend on it)', 2.51),
  ('O=C(Nc1ccc(SC(F)(F)Cl)cc1)c1cnc(N2CC[C@@H](O)C2)c(-c2ccn[nH]2)c1 [Example 18]', 'Ba/F3-BCR-ABL1-T315I cells (Homo sapiens, UniProt P00519, T315I, cells depend on it)', 1.51),
  ('O=C(Nc1ccc(C(F)(F)C(F)(F)F)cc1)c1cnc(N2CC[C@@H](O)C2)c(-c2ccn[nH]2)c1 [Example 16]', 'Ba/F3-BCR-ABL1-T315I cells (Homo sapiens, UniProt P00519, T315I, cells depend on it)', 1.96),
  ('Cn1ccc(-c2cc(C(=O)Nc3ccc(OC(F)(F)Cl)cc3)cnc2N2CC[C@@H](O)C2)n1 [Example 28]', 'Ba/F3-BCR-ABL1-T315I cells (Homo sapiens, UniProt P00519, T315I, cells depend on it)', 2.18),
  ('O=C(Nc1ccc(SC(F)(F)F)cc1)c1cnc(N2CC[C@H](CO)C2)c(-c2ccn[nH]2)c1 [Example 12]', 'Ba/F3-BCR-ABL1-T315I cells (Homo sapiens, UniProt P00519, T315I, cells depend on it)', 1.58),
  ('O=C(Nc1ccc(C(F)(F)C(F)(F)Cl)cc1)c1cnc(N2CC[C@@H](O)C2)c(-c2ccn[nH]2)c1 [Example 31]', 'Ba/F3-BCR-ABL1-T315I cells (Homo sapiens, UniProt P00519, T315I, cells depend on it)', 2.12);

----------
# measured-target: ABL1 (64-515) (Homo sapiens, UniProt P00519)
# Construct: 3.5 nM ABL (ABL(64-515), produced in-house from E. coli); His6 followed by a PreScission protease cleavage site (N, cleaved yes); made in house; host or cells: E. coli (BL21 (DE3) according to b733)
# experimental-details: Caliper ABL1 (64-515) microfluidic mobility shift assay
# Assay type: biochemical
# condition: Table of Biochemical Data
measurement-kind: IC50

INSERT INTO assay_data (smiles_record, val) VALUES
  ('O=C(Nc1ccc(OC(F)(F)Cl)cc1)c1cnc(N2CC[C@@H](O)C2)c(-c2cnn(CCO)c2)c1', '0.9 nM'),
  ('O=C(Nc1ccc(OC(F)(F)C(F)(F)F)cc1)c1cnc(N2CC[C@@H](O)C2)c(-c2ccn[nH]2)c1', '1.8 nM'),
  ('NC[C@@H]1CCN(c2ncc(C(=O)Nc3ccc(OC(F)(F)Cl)cc3)cc2-c2ccn[nH]2)C1', '1.3 nM'),
  ('Cn1nccc1-c1cc(C(=O)Nc2ccc(OC(F)(F)Cl)cc2)cnc1N1CC[C@@H](O)C1', '1.1 nM'),
  ('O=C(Nc1ccc(OC(F)(F)Cl)cc1)c1cnc(N2CC[C@@H](OP(=O)(O)O)C2)c(-c2ccn[nH]2)c1', '1.3 nM');

----------
# measured-target: ABL1 (64-515) (Homo sapiens, UniProt P00519)
# Construct: 3.5 nM ABL (ABL(64-515), produced in-house from E. coli); His6 followed by a PreScission protease cleavage site (N, cleaved yes); made in house; host or cells: E. coli (BL21 (DE3) according to b733)
# experimental-details: Radio ABL1 (64-515) radiometric filter-binding assay
# Assay type: biochemical
IC50 reference
measurement-kind: IC50

INSERT INTO results (smiles_record, val) VALUES
  ('O=C(Nc1ccc(OC(F)(F)F)cc1)c1ccc(N2CC[C@@H](O)C2)c(-c2ccn[nH]2)c1', '< 3 nM'),
  ('O=C(Nc1ccc(OC(F)(F)Cl)cc1)c1cnc(N2CC[C@H](CO)C2)c(-c2ccn[nH]2)c1', '< 0.13 nM'),
  ('O=C(Nc1ccc(SC(F)(F)F)cc1)c1cnc(N2CC[C@@H](O)C2)c(-c2ccn[nH]2)c1', '< 3 nM'),
  ('O=C(Nc1ccc(OC(F)(F)F)cc1)c1cnc(N2CC[C@H](CO)C2)c(-c2ccn[nH]2)c1', '< 3 nM');
